Each record here notes measured glycan array binding signal (z-score).
system-tested: Gal(b1-3)[Fuc(a1-4)]GlcNAc(b1-2)Man(a1-3)[Gal(b1-3)[Fuc(a1-4)]GlcNAc(b1-2)Man(a1-6)]Man(b1-4)GlcNAc(b1-4)GlcNAc
protocol-summary: glycan array binding signal (z-score within array); higher = stronger binding
condition-details: glycan notation: IUPAC condensed, linker removed
The entries come from a sample that favours the strongest signals as a whole.
quantity: glycan array binding signal (z-score)

| binder | value-observed |
| --- | --- |
| 3FTT (Staphylococcus aureus), Q5HCZ5 (protein) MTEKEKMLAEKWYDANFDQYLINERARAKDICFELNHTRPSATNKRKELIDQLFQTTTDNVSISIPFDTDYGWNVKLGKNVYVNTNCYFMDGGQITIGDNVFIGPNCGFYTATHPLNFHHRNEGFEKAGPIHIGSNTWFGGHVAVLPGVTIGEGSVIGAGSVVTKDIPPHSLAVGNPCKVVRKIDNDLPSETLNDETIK | 19.9 |
| F17aG (Escherichia coli), Q99003 (protein) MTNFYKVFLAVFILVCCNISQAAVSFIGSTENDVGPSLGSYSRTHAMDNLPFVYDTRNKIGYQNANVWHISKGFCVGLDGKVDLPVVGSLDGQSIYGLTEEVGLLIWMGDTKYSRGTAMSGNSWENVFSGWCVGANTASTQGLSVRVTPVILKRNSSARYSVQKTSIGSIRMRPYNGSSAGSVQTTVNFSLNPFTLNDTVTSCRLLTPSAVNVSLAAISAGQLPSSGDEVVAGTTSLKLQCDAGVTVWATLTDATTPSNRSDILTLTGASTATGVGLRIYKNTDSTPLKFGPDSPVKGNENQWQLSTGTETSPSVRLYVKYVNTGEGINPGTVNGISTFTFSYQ | -0.119 |
| rPitB (Streptococcus pneumoniae), A0A0I7U739 (protein) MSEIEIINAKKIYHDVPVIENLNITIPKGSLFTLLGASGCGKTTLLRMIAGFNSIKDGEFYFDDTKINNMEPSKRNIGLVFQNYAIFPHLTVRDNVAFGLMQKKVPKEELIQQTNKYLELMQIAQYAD | 3.68 |
